- Tested on: a variety of cell types that are representative of different cancers
- protocol: Alamar Blue cell viability assay, variety of cell types representative of different cancers (Tables 12-14)
- Type: cell-based
- measurement context: Homo sapiens, K562, K-562 cells, Table 13; read-out: AB: K-562 (IC50)
measurement label: IC50

molecule | IC50
O=C(NCC1CC1)c1c(=O)c2ccc(NCC(O)c3ccccc3)nc2n2c1sc1ccccc12 (stereo not drawn) | > 10 µM
O=C(NC1CC1)c1c(=O)c2ccc(NCC(O)c3ccccc3)nc2n2c1sc1ccccc12 (stereo not drawn) | > 10 µM

Next, consider the following molecule.
Inquiry: Which IC50 is listed for CN1CCN(C(=O)c2c(=O)c3ccc(NCC(O)c4ccccc4)nc3n3c2sc2ccccc23)CC1 (stereo not drawn) ?
Reply text: 3.13 µM
